Experiment: NCI Yeast Anticancer Drug Screen. Data for the mgt1 strain (AID 153)
Settings: S. cerevisiae mgt1 mutant growth inhibition; at 33.0 µM; stronger effect = higher value
Procedure: Growth inhibition of yeast strains with defined genetic alterations is measured as a screen for potential anti-cancer activity. Selected strains with alterations in DNA damage repair or cell cycle control were exposed to compounds and growth inhibition was measured relative to vehicle treated controls. The strain used in this assay is mgt1
The panel holds about 79,000 compounds, 15% with a hit somewhere; the sample as a whole holds those more often.
Label y for high-side growth inhibition (at or above 20%) and n for low-side growth inhibition (below it).

Exercise: Would you say `NC(=S)N1N=C2c3ccccc3CC[C@@H]2[C@@H]1c1ccccc1` shows growth inhibition at minimum 20%?
Key: n

Exercise: Would you say `OB(O)c1ccccc1C#Cc1ccccc1` shows growth inhibition at minimum 20%?
Key: n

Exercise: Would you say COc1cccc(C(NC2=NCCC=N2)c2cc3c(cc2O)OCO3)c1O (stereo unspecified) shows growth inhibition at minimum 20%?
Key: n

Exercise: Would you say C=CC(C)(C)N1C(=O)C(C(C)=O)=C(O)C1Cc1c[nH]c2ccccc12 (stereo unspecified) shows growth inhibition at minimum 20%?
Key: n

Exercise: Would you say `CCOC(=O)/C(=C/c1cccc(Cl)c1)N(CC)CC` shows growth inhibition at minimum 20%?
Key: y

----------
Exercise: for every item that follows, state its recorded growth inhibition.
Assay: NCI Yeast Anticancer Drug Screen. Data for the CLN2oe strain (AID 163);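 note: 0% = growth of vehicle-only control cultures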
Details: S. cerevisiae CLN2oe strain, at 11.0 µM, stronger effect = higher value
Description: Growth inhibition of yeast strains with defined genetic alterations is measured as a screen for potential anti-cancer activity. Selected strains with alterations in DNA damage repair or cell cycle control were exposed to compounds and growth inhibition was measured relative to vehicle treated controls. The strain used in this assay is CLN2oe
This is part of a sample that, as a whole, favours compounds with a hit. Of some 79,000 tested, about 15% had one in any assay. Active and inactive are the calls of the source. Rule as the data show it: active = growth inhibition above about 70%; inactive = the rest.

Exercise: Input `CCCNCC(=O)O[C@]1(CC)C(=O)OCc2c1cc1n(c2=O)Cc2cc3ccccc3nc2-1` , output reported growth inhibition.
Key: 41% (inactive)

Exercise: Input `O=C(C#Cc1ccccc1)Nc1ccccc1` , output reported growth inhibition.
Key: -14% (inactive)

Exercise: Input `COc1cc2oc3ccccc3c(=O)c2cc1CSc1ccccc1N` , output reported growth inhibition.
Key: -1% (inactive)

Exercise: Input `CCC(=O)Nc1ccc(N=NN(C)C)cc1` , output reported growth inhibition.
Key: -11% (inactive)

Exercise: Input `CCN(CC)C(=S)N/N=C(\C)c1ccccc1O` , output reported growth inhibition.
Key: 42% (inactive)

Exercise: Input `O=[N+]([O-])c1ccc(S(=O)(=O)Cc2ccccc2)c([N+](=O)[O-])c1` , output reported growth inhibition.
Key: 21% (inactive)

Exercise: Input `O=C(CCCN1CCC(Nc2ccc(F)cc2)(c2nnnn2C2CCCCC2)CC1)c1ccc(F)cc1` , output reported growth inhibition.
Key: -7% (inactive)

Exercise: Input COc1cc(OC)c(CSCC(NC(=O)OCC2c3ccccc3-c3ccccc32)C(=O)O)c(OC)c1 (stereo unspecified) , output reported growth inhibition.
Key: 68% (inactive)

Exercise: Input `CN(C)CCNCCCNc1c2ccccc2nc2cccc([N+](=O)[O-])c12` , output reported growth inhibition.
Key: 2% (inactive)

Exercise: Input `CN1CCN(C(=O)c2cccc3cccc(C(=O)O)c23)CC1` , output reported growth inhibition.
Key: 14% (inactive)

Exercise: Input `COC(=N)c1ccc(O)c(C)c1` , output reported growth inhibition.
Key: 0% (inactive)
